protocolNotes: activity coefficient (dimensionless); of the first substance listed, at infinite dilution; xn = mol fraction of the nth substance listed
particulars: 342.45 K; Liquid; Chromatography; x1 = 0
Listed compounds paired with reported activity coefficient
readoutType: activity coefficient

| compound | readoutType | numericResult |
| --- | --- | --- |
| CC(C)O [propan-2-ol] + CCCCCCCCCCCCCC[P+](CCCCCC)(CCCCCC)CCCCCC.O=S(=O)([N-]S(=O)(=O)C(F)(F)F)C(F)(F)F | activity coefficient | 0.99 |
| CCC(C)CC [3-methylpentane] + CCCCCCCCCCCCCC[P+](CCCCCC)(CCCCCC)CCCCCC.O=S(=O)([N-]S(=O)(=O)C(F)(F)F)C(F)(F)F | activity coefficient | 0.94 |
| CCc1ccccc1 [ethylbenzene] + CCCCCCCCCCCCCC[P+](CCCCCC)(CCCCCC)CCCCCC.O=S(=O)([N-]S(=O)(=O)C(F)(F)F)C(F)(F)F | activity coefficient | 0.59 |
| C1CCCCCC1 [cycloheptane] + CCCCCCCCCCCCCC[P+](CCCCCC)(CCCCCC)CCCCCC.O=S(=O)([N-]S(=O)(=O)C(F)(F)F)C(F)(F)F | activity coefficient | 3.59 |
| CC(C)CO [2-methyl-1-propanol] + CCCCCCCCCCCCCC[P+](CCCCCC)(CCCCCC)CCCCCC.O=S(=O)([N-]S(=O)(=O)C(F)(F)F)C(F)(F)F | activity coefficient | 0.95 |
| C=CCCCC [hex-1-ene] + CCCCCCCCCCCCCC[P+](CCCCCC)(CCCCCC)CCCCCC.O=S(=O)([N-]S(=O)(=O)C(F)(F)F)C(F)(F)F | activity coefficient | 0.85 |

====

protocolNotes: activity coefficient (dimensionless); of the first substance listed, at infinite dilution; xn = mol fraction of the nth substance listed
particulars: 322.35 K; Liquid; Chromatography; x1 = 0
// FALSE strictly below 1 in activity coefficient; TRUE otherwise

| compound | classLabel |
| --- | --- |
| CCC=O [propanal] + CCCCCCCCCCCCCC[P+](CCCCCC)(CCCCCC)CCCCCC.O=S(=O)([N-]S(=O)(=O)C(F)(F)F)C(F)(F)F | FALSE |
| CCCCCCCCCCC [undecane] + CCCCCCCCCCCCCC[P+](CCCCCC)(CCCCCC)CCCCCC.O=S(=O)([N-]S(=O)(=O)C(F)(F)F)C(F)(F)F | TRUE |
| c1ccncc1 [pyridine] + CCCCCCCCCCCCCC[P+](CCCCCC)(CCCCCC)CCCCCC.O=S(=O)([N-]S(=O)(=O)C(F)(F)F)C(F)(F)F | FALSE |
| C#CCCCCC [1-heptyne] + CCCCCCCCCCCCCC[P+](CCCCCC)(CCCCCC)CCCCCC.O=S(=O)([N-]S(=O)(=O)C(F)(F)F)C(F)(F)F | FALSE |
| ClC(Cl)Cl [trichloromethane] + CCCCCCCCCCCCCC[P+](CCCCCC)(CCCCCC)CCCCCC.O=S(=O)([N-]S(=O)(=O)C(F)(F)F)C(F)(F)F | FALSE |
| C1CCCCC1 [cyclohexane] + CCCCCCCCCCCCCC[P+](CCCCCC)(CCCCCC)CCCCCC.O=S(=O)([N-]S(=O)(=O)C(F)(F)F)C(F)(F)F | FALSE |
| CC(C)O [propan-2-ol] + CCCCCCCCCCCCCC[P+](CCCCCC)(CCCCCC)CCCCCC.O=S(=O)([N-]S(=O)(=O)C(F)(F)F)C(F)(F)F | TRUE |
| CC(C)CO [2-methyl-1-propanol] + CCCCCCCCCCCCCC[P+](CCCCCC)(CCCCCC)CCCCCC.O=S(=O)([N-]S(=O)(=O)C(F)(F)F)C(F)(F)F | TRUE |
| CCCCCC [hexane] + CCCCCCCCCCCCCC[P+](CCCCCC)(CCCCCC)CCCCCC.O=S(=O)([N-]S(=O)(=O)C(F)(F)F)C(F)(F)F | TRUE |
| CCC[N+](=O)[O-] [1-nitropropane] + CCCCCCCCCCCCCC[P+](CCCCCC)(CCCCCC)CCCCCC.O=S(=O)([N-]S(=O)(=O)C(F)(F)F)C(F)(F)F | TRUE |
| C=O [methanal] + CCCCCCCCCCCCCC[P+](CCCCCC)(CCCCCC)CCCCCC.O=S(=O)([N-]S(=O)(=O)C(F)(F)F)C(F)(F)F | FALSE |
| C=CCCCC [hex-1-ene] + CCCCCCCCCCCCCC[P+](CCCCCC)(CCCCCC)CCCCCC.O=S(=O)([N-]S(=O)(=O)C(F)(F)F)C(F)(F)F | FALSE |
| C1CCCCCC1 [cycloheptane] + CCCCCCCCCCCCCC[P+](CCCCCC)(CCCCCC)CCCCCC.O=S(=O)([N-]S(=O)(=O)C(F)(F)F)C(F)(F)F | TRUE |
| CCCCO [butan-1-ol] + CCCCCCCCCCCCCC[P+](CCCCCC)(CCCCCC)CCCCCC.O=S(=O)([N-]S(=O)(=O)C(F)(F)F)C(F)(F)F | TRUE |
| CCc1ccccc1 [ethylbenzene] + CCCCCCCCCCCCCC[P+](CCCCCC)(CCCCCC)CCCCCC.O=S(=O)([N-]S(=O)(=O)C(F)(F)F)C(F)(F)F | FALSE |
| C1COCCO1 [1,4-dioxane] + CCCCCCCCCCCCCC[P+](CCCCCC)(CCCCCC)CCCCCC.O=S(=O)([N-]S(=O)(=O)C(F)(F)F)C(F)(F)F | FALSE |
| ClC(Cl)(Cl)Cl [tetrachloromethane] + CCCCCCCCCCCCCC[P+](CCCCCC)(CCCCCC)CCCCCC.O=S(=O)([N-]S(=O)(=O)C(F)(F)F)C(F)(F)F | FALSE |
| CCCCCCC [heptane] + CCCCCCCCCCCCCC[P+](CCCCCC)(CCCCCC)CCCCCC.O=S(=O)([N-]S(=O)(=O)C(F)(F)F)C(F)(F)F | TRUE |
| C#CCCCC [1-hexyne] + CCCCCCCCCCCCCC[P+](CCCCCC)(CCCCCC)CCCCCC.O=S(=O)([N-]S(=O)(=O)C(F)(F)F)C(F)(F)F | FALSE |
| CCO [ethanol] + CCCCCCCCCCCCCC[P+](CCCCCC)(CCCCCC)CCCCCC.O=S(=O)([N-]S(=O)(=O)C(F)(F)F)C(F)(F)F | TRUE |
| C[N+](=O)[O-] [nitromethane] + CCCCCCCCCCCCCC[P+](CCCCCC)(CCCCCC)CCCCCC.O=S(=O)([N-]S(=O)(=O)C(F)(F)F)C(F)(F)F | FALSE |
| CCCCCCCCCC [decane] + CCCCCCCCCCCCCC[P+](CCCCCC)(CCCCCC)CCCCCC.O=S(=O)([N-]S(=O)(=O)C(F)(F)F)C(F)(F)F | TRUE |
| CCCC(C)=O [pentan-2-one] + CCCCCCCCCCCCCC[P+](CCCCCC)(CCCCCC)CCCCCC.O=S(=O)([N-]S(=O)(=O)C(F)(F)F)C(F)(F)F | FALSE |

====

protocolNotes: activity coefficient (dimensionless); of the first substance listed, at infinite dilution; xn = mol fraction of the nth substance listed
particulars: 342.45 K; Liquid; Chromatography; x1 = 0

| molecule | activity coefficient |
| --- | --- |
| C=O [methanal] + CCCCCCCCCCCCCC[P+](CCCCCC)(CCCCCC)CCCCCC.O=S(=O)([N-]S(=O)(=O)C(F)(F)F)C(F)(F)F | 0.07 |
| C[N+](=O)[O-] [nitromethane] + CCCCCCCCCCCCCC[P+](CCCCCC)(CCCCCC)CCCCCC.O=S(=O)([N-]S(=O)(=O)C(F)(F)F)C(F)(F)F | 0.58 |
| CCCCCC [hexane] + CCCCCCCCCCCCCC[P+](CCCCCC)(CCCCCC)CCCCCC.O=S(=O)([N-]S(=O)(=O)C(F)(F)F)C(F)(F)F | 1.01 |
| CCOCC [diethyl ether] + CCCCCCCCCCCCCC[P+](CCCCCC)(CCCCCC)CCCCCC.O=S(=O)([N-]S(=O)(=O)C(F)(F)F)C(F)(F)F | 0.57 |
| CC#N [acetonitrile] + CCCCCCCCCCCCCC[P+](CCCCCC)(CCCCCC)CCCCCC.O=S(=O)([N-]S(=O)(=O)C(F)(F)F)C(F)(F)F | 0.46 |
| CCCCCCCCC [nonane] + CCCCCCCCCCCCCC[P+](CCCCCC)(CCCCCC)CCCCCC.O=S(=O)([N-]S(=O)(=O)C(F)(F)F)C(F)(F)F | 1.74 |

====

Known activity coefficient of a selection of molecules
protocolNotes: activity coefficient (dimensionless); of the first substance listed, at infinite dilution; xn = mol fraction of the nth substance listed
particulars: 302.45 K; Liquid; Chromatography; x1 = 0
readoutType: activity coefficient

| molecule | numericResult |
| --- | --- |
| CCCCCCC [heptane] + CCCCCCCCCCCCCC[P+](CCCCCC)(CCCCCC)CCCCCC.O=S(=O)([N-]S(=O)(=O)C(F)(F)F)C(F)(F)F | 1.27 |
| C#CCCCC [1-hexyne] + CCCCCCCCCCCCCC[P+](CCCCCC)(CCCCCC)CCCCCC.O=S(=O)([N-]S(=O)(=O)C(F)(F)F)C(F)(F)F | 0.7 |
| CCC(C)=O [butanone] + CCCCCCCCCCCCCC[P+](CCCCCC)(CCCCCC)CCCCCC.O=S(=O)([N-]S(=O)(=O)C(F)(F)F)C(F)(F)F | 0.28 |
